- Test system: Bi. longum
- protocolDescription: MIC against human normal gut microbiota: Bifidobacterium longum
- Format: cell-based
- runConditions: Bi. longum HM 848
readoutName: MIC

Sample answers from the record:
[
  {
    "molecule": "COc1cc(C2OC(=O)C(CN3CCCCC3)C2c2ccccc2Br)ccc1OCc1ccccc1 (racemic)",
    "MIC": ">128 mg/L"
  },
  {
    "molecule": "C=C1C(=O)O[C@H](c2ccccc2O)[C@@H]1c1cccc(C#N)c1 (racemic)",
    "MIC": ">128 mg/L"
  },
  {
    "molecule": "C=C1C(=O)OC(CCCCCCCC)C1C=Cc1ccccc1 (racemic)",
    "MIC": ">128 mg/L"
  },
  {
    "molecule": "C=C1C(=O)O[C@H](c2c(OC)cc(OC)cc2OC)[C@@H]1c1ccc(C(F)(F)F)cc1 (racemic)",
    "MIC": ">128 mg/L"
  },
  {
    "molecule": "CC(C)(C)[Si](C)(C)OCCC1OC(=O)C(CN2CCCCC2)C1c1cccc(Br)c1 (racemic)",
    "MIC": ">128 mg/L"
  }
]

As a next step, examine the molecule that follows.
Briefly, MIC measured for C=C1C(=O)O[C@H](c2ccc(OCc3ccccc3)c(OC(C)=O)c2)[C@@H]1c1ccccc1Br (racemic) : >128 mg/L

// data source = patent US20250195490A1
